test system: A549/ATCC NSCLC; experiment: NCI-60 one-dose screen, 48 h; conditions: 10 µM unless noted
The panel holds about 83,000 compounds, 20% with a hit somewhere; the sample as a whole holds those more often. Active and inactive are the calls of the source. How the source made its calls: active means growth percent below 10; inactive means the rest.
Hello, when you answer, please use one of the following outcomes: yes (1) = active, no (0) = inactive

Worked set:
1. Cc1cc(Cl)c2c(N(C)C)cccc2n1    no (0)
2. Nc1c(C(=O)Nc2c(Cl)cccc2Cl)sc2nc3c(cc12)CCCC3    no (0)
3. CC(C)(C)c1ccc(OP(=S)(N/N=C/c2ccccc2O)Oc2ccc(C(C)(C)C)cc2)cc1    no (0)

[in] For c1cc(N2CCCC2)c2nc(-c3[nH]ncc3Nc3ncnc4[nH]ccc34)[nH]c2c1 , which call appears in the assay record?
[out] yes (1)

[in] For O=C(O)c1cccc2c1C(=O)N(c1ccc3c(c1)Cc1ccccc1-3)C2=O , which call appears in the assay record?
[out] no (0)

[in] For COc1ccc(C2(Cl)c3ccccc3N(c3ccccc3)c3ccccc32)cc1 , which call appears in the assay record?
[out] yes (1)

[in] For Cc1ccc(N(CC(=O)Nc2ccc(S(=O)(=O)NC3CCN(C)CC3)cc2)S(=O)(=O)c2ccc(Cl)cc2)cc1 , which call appears in the assay record?
[out] no (0)

src = PubChem BioAssay (NCI)
